So I've got a bunch of substances here, and I need their IC50 values.
Test system: human SMAD7 mRNA
Test: Dose-dependent inhibition of human SMAD7 mRNA expression in Hep3B cells (Example 3, Study 1 and 2)
Type: cell-based
Details: electroporation, Study 2 (740-20000 nM)
Strand notation (5' to 3'): a small letter for the sugar, then the base; units joined by * are phosphorothioate-linked, units joined directly phosphodiester-linked; [ ] holds rarer units or linkages, { } end groups; capitals alone tell only the bases. k = constrained ethyl (cEt); [5mC] = 5-methylcytosine; d = 2'-deoxy (DNA)
// note: answer is a bare numeric in µM

Request: Record request: IC50 value, item 830051 (kT*kA*kG*dT*dT*dT*d[5mC]*d[5mC]*dG*dA*dT*dT*dG*kG*k[5mC]*kA; antisense) [compound 830051]
Result: 2

Request: # query: IC50 of entry 799921 (antisense k[5mC]*kT*kA*dA*dT*dT*dA*dG*dT*dG*dA*d[5mC]*dT*kG*kT*kG) [compound 799921]
Result: 11

Request: Fill blank: measured IC50 of the substance 798987 (antisense kA*kA*kT*dG*dA*dT*dG*dA*d[5mC]*d[5mC]*dG*d[5mC]*d[5mC]*k[5mC]*k[5mC]*k[5mC]) [compound 798987] is ____.
Result: 4

Request: Look up IC50: 798931 (antisense kG*kA*kG*dG*dA*dA*dA*dA*dT*dA*dT*dT*dA*kG*k[5mC]*kA) [compound 798931]
Result: 7

Request: If you can, please state the reported IC50 value of 830067 (kG*kA*kA*dA*dT*dG*dG*dT*dG*d[5mC]*dT*d[5mC]*dT*kG*k[5mC]*k[5mC]; antisense) [compound 830067] .
Result: 10

Request: Sample 799759 (antisense kA*k[5mC]*k[5mC]*dA*dT*dA*dT*d[5mC]*dA*d[5mC]*dT*d[5mC]*d[5mC]*kT*kT*k[5mC]) [compound 799759] — what was its IC50?
Result: 2

Data provenance: patent US10517889B2
